# TARGET SYSTEM: Pro-neuregulin-1, membrane-bound isoform (Homo sapiens)
# RUN DESCRIPTION: small molecules binding neuregulin-1 protein – biochemical, small-molecule microarray, fluorescence 635/667, psychiatric disease protein project, primary screen (AID 1075);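 also: score combines 667 nm spot fluorescence with signal to noise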
# CONDITION PARAMETERS: NRG1 binding, 635 nm fluorescence, higher = more signal
Criterion: composite z-score meeting or surpassing 0.8. Met: 1. Not met: 0.

input: Check if composite z-score >= 0.8 (inclusive). Item: O=C1C2C=CC(C(O)c3c(F)cccc3Cl)N(Nc3ccccc3F)C2C(=O)N1c1ccccc1 (stereo not drawn)
output: 1

input: Exam item: decide whether the reported composite z-score for CC1CC/C=C\[C@H]2OC34C=CCN(Cn5nnc6ccccc65)C(=O)[C@H]3N(CCCCCO)C(=O)[C@@H]4C2C(=O)O1 (stereo partly drawn) is at least 0.8.
output: 0

input: # check: composite z-score of "COCC(=C=CC[C@H](O)c1ccccc1OCCO)CCO" is greater than or equal to 0.8
output: 1

* * *

# System: Noggin (protein binding on small-molecule microarray)
# RUN DESCRIPTION: small molecules binding Noggin protein – biochemical, 635/667 nm fluorescence, primary screen (AID 1095);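 also: score merges 667 nm feature fluorescence with signal to noise over triplicate slides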
# CONDITION PARAMETERS: 635 nm fluorescence, higher = more signal
Readings of composite z-score for the listed molecules
Number only, no unit.

These solved cases illustrate the format of a correct answer.
1. COc1ccc([C@H]2C[C@H]3C(Br)=C[C@@]2(CO)C(=O)[C@]32CO2)cc1 ... -0.472
2. COCCOC(=O)N1C(=O)[C@@]2(c3ccccc31)[C@H](C(N)=O)[C@H]1C(=O)O[C@H](c3ccccc3)[C@H](c3ccccc3)N1[C@@H]2c1ccc(O)cc1 ... -0.32
3. CC1CC/C=C\[C@H]2OC34C=CCN(Cn5nnc6ccccc65)C(=O)[C@H]3N(CCCCCO)C(=O)[C@@H]4C2C(=O)O1 (some centres not stated) ... -0.355
4. N#Cc1ccc(C(O)C2C=CC3C(=O)N(c4ccccc4)C(=O)C3N2Nc2ccccc2F)cc1 (configuration not stated) ... 0.339
5. CC[C@@H]1C=C(C(=O)O)[C@H](c2ccc(C)cc2)N1S(=O)(=O)c1ccc(C)cc1 ... 0.634

input: Which composite z-score value is on record for C=CCC(OC(C)=O)[C@@H]1[C@@H](N(Cc2cc3ccccc3o2)C(=O)Cc2ccc(OC)cc2)c2cc(OCCCO)ccc2N1C(=O)c1ccc2ccccc2c1 (some centres not stated) ?
output: -0.104

input: Param item = CN1C(=O)C2C=CC(C(O)C=Cc3ccc([N+](=O)[O-])cc3)N(Nc3ccccc3)C2C1=O (configuration not stated) ; retrieve measured composite z-score.
output: 0.577

* * *

# TARGET SYSTEM: Calmodulin-1 (Homo sapiens)
# RUN DESCRIPTION: small molecules binding calmodulin-1 with EGTA – biochemical, small-molecule microarray, Cy5-labelled CALM1, profiling panel (AID 1111);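 also: labelled calmodulin applied in Tris saline Tween buffer holding calcium plus EGTA and DTT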
# CONDITION PARAMETERS: Cy5-CALM1 binding fluorescence, higher = more signal
Where composite z-score equals or exceeds 0.2, the correct label is YES; where it does not, the label is NO.

Example entries begin here.
1. COc1ccc(CCNC(=O)[C@@]2(c3ccc([N+](=O)[O-])cc3)CC(=O)N(CC34CC5CC(CC(C5)C3)C4)[C@@H]2c2ccc(CO)cc2I)cc1 ... YES
2. O=C1NC(=O)C2C1C=CC(C(O)C=Cc1ccc([N+](=O)[O-])cc1)N2Nc1ccc(Cl)cc1Cl (configuration not stated) ... YES
3. CCCCCCc1nc(-c2ccc(-c3ccc(Cl)c(Cl)c3)o2)c(C)c2c1[Si](C(C)C)(C(C)C)OC2 ... NO
4. CCOC(=O)C[C@H]1[C@H](OC(=O)c2ccc(-c3ccccc3)cc2)[C@@H](NC(=O)c2ccccc2)c2cc(OCCCO)ccc2N1C(=O)c1ccc2ccccc2n1 ... YES

input: Would you say "COC(=O)[C@@]1(Cc2ccccc2)[C@H]2c3cc(C(=O)N4CCCC4)n(Cc4c(CO)[nH]cc(C)c4=O)c3C[C@H]2CN1C(=O)c1ccccc1" shows composite z-score at minimum 0.2?
output: YES

input: Does the reported composite z-score for O=C1C2C=CC(C(O)c3ccc4c(c3)OCO4)N(Nc3ccc([N+](=O)[O-])cc3)C2C(=O)N1c1ccccc1 (configuration not stated) fall at or above the 0.2 mark?
output: NO

input: Check the entry "CN(C)CCCCCCNC(=O)[C@@H]1C[C@@H]2C(=O)N[C@@H](CCCC[N+](C)(C)C)C(=O)N2[C@@H]1c1ccc(O)cc1" : does composite z-score equal or exceed 0.2?
output: NO

* * *

# RUN DESCRIPTION: probe aInhba binding on compound microarray – biochemical, small-molecule microarray, 635/667 nm fluorescence, primary screen (AID 1148);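 also: score merges 667nm spot fluorescence with signal-to-noise for antibody binding to printed compounds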
# CONDITION PARAMETERS: higher = more signal
Outcome: true for composite z-score of at least 0.02; false for anything lower.

Here's what some known entries look like.
1) [N-]=[N+]=Nc1ccccc1C[C@@]1(C(=O)N2CCCCC2)N=C(c2ccc(OCCCO)cc2)O[C@@H]1c1ccccc1N=[N+]=[N-] ... true
2) COCCOC(=O)N1C(=O)[C@@]2(c3cc(C#CC4(O)CCCCCC4)ccc31)[C@H](C(=O)Nc1nc3ccccc3s1)[C@H]1C(=O)O[C@H](c3ccccc3)[C@H](c3ccccc3)N1[C@@H]2c1ccccc1OCCO ... false
3) CC(C)(C)OC(=O)CC[C@]1(C(=O)NCCN2CCOCC2)COC(c2ccc(OCCCO)cc2)=N1 ... true
4) CCOC(=O)C1=CC[C@H]2C(=O)N(c3ccccc3)C(=O)[C@@H]12 ... true
5) O=C(NCCN1CCOCC1)[C@@H]1c2ccccc2C(=O)N(Cc2cc(C(F)(F)F)cc(C(F)(F)F)c2)[C@H]1c1ccc(CO)cc1 ... false
6) C=CCC(OC(C)=O)[C@@H]1[C@@H](N(Cc2ccc(-c3cccc(C(F)(F)F)c3)o2)C(=O)c2cccc3ccccc23)c2cc(OCCCO)ccc2N1C(=O)Cc1ccc2ccccc2c1 (some centres not stated) ... true

Moving on to the next molecule.
input: Assess whether reported composite z-score for "CC[C@@H]1C=C(C(=O)O)[C@H](c2cccc3ccccc23)N1S(=O)(=O)c1ccc(C)cc1" sits at 0.02 or higher.
output: false

* * *

# composite z-score values compiled below
# RUN DESCRIPTION: binders from COS7 lysate, DM2A8 probe, primary screen, torsin A project, cell lysate, small-molecule microarray, fluorescence 635/667 (AID 1065)
# CONDITION PARAMETERS: higher = more signal, COS7 lysate expressing mutant human TOR1A

1) COc1ccc(C#Cc2ccc3c(c2)[C@]2(C(=O)N3)[C@H](c3ccc(O)cc3)N3[C@H](c4ccccc4)[C@H](c4ccccc4)OC(=O)[C@H]3[C@@H]2C(=O)N2CCc3cc(OC)c(OC)cc3C2)cc1 ... 0.0877

input: Could you share which composite z-score value was measured for CCOc1ccc(N2C(=O)CSC2c2cccc([N+](=O)[O-])c2)cc1 (stereo not given) ?
output: -0.113

input: What composite z-score value was documented for this compound, "CO[C@H]1O[C@H](CO)[C@@H](OC(=O)Nc2ccccc2)[C@@H]2OC(=O)[C@@H](Cc3ccc4ccccc4c3)C/C=C/C[C@H](Cc3ccc4ccccc4c3)C(=O)O[C@@H]12" ?
output: 0.821

input: Entry under review: "C=C(CCCC)/C(=C/C[C@@H](OC(C)=O)c1cccc(OCCO)c1)c1cnc2ccccc2c1" . Reported composite z-score?
output: 0.314

input: composite z-score for Cc1ccc(C2C3C(=O)CC4C(=O)N(c5ccccc5)C(=O)C4C3CN2S(=O)(=O)c2ccc(C)cc2)cc1 (stereo not given) ?
output: 0.204

input: Any idea what its composite z-score is? The compound is "CCCCCCc1nc(-c2ccc(-c3ccc(Cl)c(Cl)c3)o2)cc2c1[Si](C(C)C)(C(C)C)O[C@H]2c1ccccc1"
output: -0.543

input: Reported composite z-score, compound "O=C1O[C@@H](c2ccccc2)[C@@H](c2ccccc2)N2[C@@H](c3ccc(OCCO)cc3)[C@]3(C(=O)Nc4ccc(C#CC5=CCCCC5)cc43)[C@@H](C(=O)N3CCCCCCC3)[C@H]12" : ____
output: 1.51

input: Fill in: composite z-score of CC(c1ccccc1)C(O)C1C=CC2C(=O)N(c3ccccc3)C(=O)C2N1Nc1ccccc1 (stereo not given) is ___
output: 0.2

input: Data request, read-out composite z-score, for "CCCNC(=O)[C@@]1(Sc2ccc(C)cc2)CC(=O)N(Cc2ccccc2C(F)(F)F)[C@@H]1c1ccc(CO)cc1I"
output: 2.46

* * *

# RUN DESCRIPTION: probe aLefty1 binding on compound microarray – biochemical, small-molecule microarray, 635/667 nm fluorescence, primary screen (AID 1153);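 also: score merges spot fluorescence with signal-to-noise ratio from the scanned slide images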
# CONDITION PARAMETERS: higher = more signal
Use Yes when the recorded composite z-score is no lower than 0.3; use No when it is lower.

input: Test whether the compound "[N-]=[N+]=Nc1ccccc1C[C@]1(C(=O)N2CCCCC2)COC(c2ccc(OCCCO)cc2)=N1" records composite z-score of 0.3 or higher.
output: Yes

input: Is it the case that "COC(=O)[C@H](Cc1ccccc1)N[C@H](/C=C/C1CC1)[C@@H](O)Cc1ccccc1" has composite z-score reaching or exceeding 0.3?
output: No

input: Determine whether measured composite z-score meets or exceeds 0.3 for "Cc1ccc(S[C@]2(C(=O)NCC(C)C)CC(=O)N(Cc3cc(C(F)(F)F)cc(C(F)(F)F)c3)[C@@H]2c2ccc(CO)cc2)cc1"
output: No

input: Decide: is the reported value of composite z-score for NC(=O)N1C(=O)C2C(C1=O)C1C=C(CCCO)C2C(C2CC2)N1Cc1cc2c(cc1Br)OCO2 (stereo unspecified) equal to or greater than 0.3?
output: No
